Assignment: determine reported EC50 for the given compounds.
experimental.target: μ-opioid receptor (Homo sapiens, UniProt P35372)
Sequence (P35372 whole entry, species assumed): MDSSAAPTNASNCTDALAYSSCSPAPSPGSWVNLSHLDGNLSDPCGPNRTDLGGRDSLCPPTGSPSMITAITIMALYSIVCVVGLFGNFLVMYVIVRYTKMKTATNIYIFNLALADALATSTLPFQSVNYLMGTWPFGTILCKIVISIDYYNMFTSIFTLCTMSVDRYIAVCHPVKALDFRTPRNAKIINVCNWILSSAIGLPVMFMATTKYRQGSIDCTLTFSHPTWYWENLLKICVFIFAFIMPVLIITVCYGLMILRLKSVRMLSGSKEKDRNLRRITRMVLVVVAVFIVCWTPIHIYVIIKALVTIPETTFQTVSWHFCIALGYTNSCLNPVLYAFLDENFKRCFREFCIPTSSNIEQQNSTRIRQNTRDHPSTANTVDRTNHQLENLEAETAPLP
procedure.summary: biochemical
Design: purchased Perkin Elmer, Shelton, Conn; host or cells: HEK-293 or CHO
condition.info: HEK-293 or CHO cells; read-out: GTPγS μ EC50
Give bare numbers, in nM.

Answered cases to consult:
COc1ccc2c(c1)[C@]1(CCNC(=O)NS(=O)(=O)c3ccc(F)cc3)CCN(C)[C@H](C2)[C@@H]1C [Compound 67] ... 2450
C[C@H]1[C@H]2Cc3ccc(O)cc3[C@]1(CCN(C)C)CCN2C [Compound 22] ... 1070
C[C@H]1[C@H]2Cc3ccc(O)cc3[C@]1(CCNS(=O)(=O)c1ccc(F)cc1)CCN2C [Compound 69] ... 5.42

Let us move to another entry and its EC50.
Summary for this compound, C[C@H]1[C@H]2Cc3ccc(O)cc3C1(CCN[C@H]1C[C@H]3CCC[C@@H](C1)N3CC[C@@H]1CC[C@H]3C[C@@H]1C3(C)C)CCN2C [Compound 64] : EC50 is 19.6
